Each item that follows carries a reported IC50.
experimental.details: Antioxidant activity assessed as superoxide radical scavenging activity after 20 mins by NBT reduction assay
Format: functional

O=C(/C=C/C=C/c1ccc(O)cc1)/C=C/c1ccc(O)cc1 :: > 100 µg/mL
Oc1cc(O)c2c(c1)OC(c1ccc(O)c(O)c1)C(O)C2 (configuration not stated) :: 13.7 µg/mL
Oc1cc(O)cc(CCc2ccccc2O)c1 :: > 100 µg/mL
COc1cc(O)cc2c1Oc1ccccc1CC2 :: > 100 µg/mL
COc1c(O)cccc1CCc1cc(O)cc(O)c1 :: > 100 µg/mL

Input line: Value lookup for IC50; key = COc1cc(CCc2ccccc2O)cc(OC)c1O
Output line: 56.3 µg/mL

Input line: Query: IC50; subject: COc1c(O)cc(CCc2ccccc2)cc1O
Output line: > 100 µg/mL
